molecular target: T1, recombinant human VEGF165 (human, UniProt P15692-4 27-191, biotinylated (Sulfo-NHS-LC-Biotin) in the competition assays); assay: Biacore, periplasmic extract, VEGF165 chip, two phase decay fit; design: unit not given here
T1 construct: also called hVEGF165; rhVEGF165
T1 sequence (P15692 other isoform, or with tags, fused parts or gaps limits assumed): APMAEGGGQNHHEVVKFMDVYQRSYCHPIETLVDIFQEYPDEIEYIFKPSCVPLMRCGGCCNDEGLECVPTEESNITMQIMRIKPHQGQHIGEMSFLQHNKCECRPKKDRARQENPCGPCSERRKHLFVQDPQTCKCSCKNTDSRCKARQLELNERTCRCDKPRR
metric_name: kd(slow)
One number for each entry.

Lookup: What value of kd(slow) has been reported for the following binder? VEGFBII31C07 (VHH, not shown: small tags and cut ends) VHH: EVQLVESGGGLVQTGDSLRLSCAASGGTFSSYSMGWFRQAQGKEREFVVAISSSGGYIYDSVSLEGRFTISRDNTKNTVYLQTPSLKPEDTADYYCAASRAYGSSRLRLADTYDYWGQGTQVTVSS
Found: 0.00015

Lookup: So what's the measured kd(slow) for this one? VEGFBII62F02 (VHH, not shown: small tags and cut ends) VHH: EVQLVESGGGLVQPGDSLKLSCAFSGRTFSSYSMGWFRQAQGKEREFVVAIASGGYIYDAVSLEGRFTISRDNTKDTVYLQTPSLKPEDTAVYYCAASRAYGSSRLRLADTYDYWGQGTQVTVSS
Found: 8.5e-05

Lookup: Dear colleague, I am looking for the recorded kd(slow) of the following binder: VEGFBII42F11 (VHH, not shown: small tags and cut ends) VHH: EVQLVESGGGLVQPGDSLKLSCVASGRTSSSYSVGWFRQAQGKEREFVVAISSGGYIYDSVSLQGRFTISRDNTKNTVYLQTPSLKPEDTAVYYCAASRAYGSSRLRLADTYDYWGQGTQVTVSS
Found: 0.0005

Lookup: I am curious: what kd(slow) value has been reported for VEGFBII23A08 (VHH, not shown: small tags and cut ends) VHH: EVQLVESGGGLVQTGDSLRLSCVASGRTFSSYSMGWFRQAQGKEREFVVAISNGGYKYDSVSLEGRFTISRDNTKNTVYLQINSLKPEDTAVYYCAASRAYGSSRLRLADTYDYWGQGTQVTVSS ?
Found: 5e-05

Lookup: Param item = VEGFBII40G07 (VHH, not shown: small tags and cut ends) VHH: EVQLVESGGGLVQPGDSLKLSCAFSGRTFSSYSMGWFRQAQGKEREFVVAISSSGGYIYDSVSLEGRFTISRDNTKNAVYLQTPSLKPEDTADYYCAASRAYGSSRLRLADTYDYWGQGTQVTVSS ; retrieve measured kd(slow).
Found: 0.00032

Lookup: So what does the record say about kd(slow) for VEGFBII23G03 (VHH, not shown: small tags and cut ends) VHH: EVQLVESGGGLVQPGDSLKLSCAFSGRTFGSYSMGWFRQAQGKEREFVVAISSSGGYIYDSVSLEGRFTISRDNSKNTVYLQTPSLKPEDTAVYYCAASRAYGSSRLRLPGTYDYWGQGTQVTVSS ?
Found: 8.6e-05

Lookup: What measured kd(slow) goes with VEGFBII41G03 (VHH, not shown: small tags and cut ends) VHH: EVQLVESGGGLVQPGDSLKLSCAFSGRTFSSYSMAWFRQAQGKEREFVVAISSGGFIYDAVSLEGRFTISRENTKNTVYLQTPSLKPEDTAVYYCAASRAYGSSRLRLADTYDYWGQGTQVTVSS ?
Found: 0.00027

Here is the next item to consider.
Lookup: Param item = VEGFBII62A09 (VHH, not shown: small tags and cut ends) VHH: EVQLVESGGDLVQPGDSLKLSCAASGRTFSSYSMGWFRQAQGKEREFVVAISSSGGYIYDSVSLEGRFTISRDNTKNTVYLQTPSLKPEDTAVYYCAASRAYGSSRLRLADTYDYWGQGTQVTVSS ; retrieve measured kd(slow).
Found: 0.00011
